Exercise: state measured TGI for each of the molecules provided.
# Test system: U251 CNS
# experiment: NCI tumour cell line growth inhibition, 48 h

Lab note: "O=C(/C=C/c1ccc(O)c(O)c1)OCCc1cccc2ccccc12" gave TGI of 21.7 µM

Lab note: "O=C(Nc1cc(C(F)(F)F)ccc1F)Nc1n[nH]c2ccccc12" gave TGI of > 100 µM

Lab note: "C=C=C(C)[Si](C)(C)C" gave TGI of > 100 µM

Lab note: "O=C1OCC(C#Cc2ccccc2)=C1Cl" gave TGI of 3.13 µM

Lab note: O=C1c2ccccc2CC12Cc1cc3c(cc1C2=O)CCC3 (configuration not stated) gave TGI of > 100 µM

Lab note: "COC(=O)C1=Nc2c(C)nn(-c3ccccc3)c2N=C(c2ccc(C)cc2)C1" gave TGI of > 10 µM

Lab note: CC(c1ccc(Br)cc1)C(C(=O)O)C(=O)O (configuration not stated) gave TGI of > 100 µM

Lab note: "COc1cccc2cc(C(N)=O)c(=N)oc12" gave TGI of > 100 µM

Lab note: CC(=O)OCC1OC(n2c(N)c(C#N)c(-c3ccccc3)c(C#N)c2=S)C(OC(C)=O)C(OC(C)=O)C1OC(C)=O (configuration not stated) gave TGI of 59.1 µM

Lab note: "CC(=O)Nc1ncc(Sc2ccccc2C(=O)O)s1" gave TGI of > 100 µM

Lab note: "CC1(C)N=C(N)N=C(N)N1c1ccc(F)c(C(F)(F)F)c1" gave TGI of > 100 µM

Lab note: "O=C(COc1cccc(/C=C2\COc3ccccc3C2=O)c1)Nc1nccs1" gave TGI of 3.11 µM
